Where do these numbers come from? They come from the RNAGym collection of RNA variant scans (doi:10.1038/nmeth.2970).

B1: NELF-E aptamer (parent)
chain: CCCAACGACUGCCGAGCGAGAUUACGCUUGAGCGCCCCACUGAGGAUGCCCACGGGCGAUUGGGGCACGG

variants of: B1; experiment: HiTS-RAP; conditions: with NELF-E (Drosophila)
Entries annotated with measured Kd
outcome measure: Kd (nM)

> print(dat)
       change  quantitative.result
 1  U22G U29G                  5.4
 2  A24G G62A                 26.1
 3   A8U A43U                  104
 4  U23G C38A                 35.2
 5   A8U G18A                 5.68
 6   A5U A19U                    6
 7  G14A G16A                 6.86
 8  U29G A39U                 26.4
 9  C13G G64C                 5.83
10  U22G A43U                 56.4
11   A5G G62A                 13.5
12   A8G U41G                 6.37
13   G7U A59U                 18.3
14  U22G A52C                 6.52
15  U10G G20U                 6.08
16   A4U C51U                 7.05
17        C6U                 5.29
18  C13G A59G                 12.2
19  G34U C35G                 4.52
20  U22G U41G                 5.36
21   A8U U29A                 4.61
22  G14A G18A                  5.3
